Form field: FGFR1/FGFR3 (one value per entry).
System: FGFR3 enzyme
Assay Text: FGFR Enzymatic Assay (FRET peptide phosphorylation), FGFR3
Format: biochemical
Protocol Conditions: IC50 ratio showing FGFR3 selectivity; Table 2A, pre-incubated for 4 hours

CCc1cnc(N2C(=O)N(c3c(F)c(OC)cc(OC)c3F)Cc3cnc(-c4cn(C)nc4C)cc32)cn1 : >3

Ask: Entry `COc1cc(OC)c(F)c(N2Cc3cnc(-c4cnn(CCCN5CCOCC5)c4)cc3C3(CC3)C2=O)c1F` has what FGFR1/FGFR3?
Result: >5

Ask: Entry `COc1cc(OC)c(F)c(N2Cc3cnc(-c4cn(CC#N)nc4C)cc3C3(CC3)C2=O)c1F` has what FGFR1/FGFR3?
Result: >5

Ask: Entry `CCn1cc(N2C(=O)N(c3c(F)c(OC)cc(OC)c3F)Cc3cnc(-c4cn(C)nc4C)cc32)cn1` has what FGFR1/FGFR3?
Result: >3

Ask: Entry `CCc1nnc(CN2C(=O)N(c3c(F)c(OC)cc(OC)c3F)Cc3cnc(-c4cn(C)nc4C)cc32)o1` has what FGFR1/FGFR3?
Result: >5

Ask: Entry `CCN1C(=O)N(c2c(F)c(OC)cc(OC)c2F)Cc2cnc(-c3cn(CCN4CCOCC4)nc3C)cc21` has what FGFR1/FGFR3?
Result: >5

Ask: Entry `COc1cc(OC)c(F)c(N2Cc3cnc(-c4cn(C)nc4C)cc3N(c3ccncn3)C2=O)c1F` has what FGFR1/FGFR3?
Result: >10

====

Form field: FGFR1/FGFR3 (one value per entry).
Test system: FGFR3 enzyme
Assay Text: FGFR Enzymatic Assay (FRET peptide phosphorylation), FGFR3
Type: biochemical
Protocol Conditions: IC50 ratio showing FGFR3 selectivity; Table 2A, pre-incubated for 4 hours

The following compounds have reported results that may help.
COc1cc(OC)c(F)c(N2Cc3cnc(-c4cn(C)nc4C)cc3N(c3ccc(-c4nnc(C)o4)cc3)C2=O)c1F : >3
COc1cc(OC)c(F)c(N2Cc3cnc(-c4cnn(CC5CN(C(C)=O)C5)c4)cc3C3(CC3)C2=O)c1F : >3

Kindly consider the entry below.
Ask: Entry `CCCNC(=O)c1ccc(-c2cc3c(cn2)CN(c2c(F)c(OC)cc(OC)c2F)C(=O)N3CC)cn1` has what FGFR1/FGFR3?
Result: >5

====

System: FGFR3 enzyme
Assay Text: FGFR Enzymatic Assay (FRET peptide phosphorylation), FGFR3
Type: biochemical
Protocol Conditions: IC50 ratio showing FGFR3 selectivity; Table 2A, pre-incubated for 4 hours
Reported Endpoint: FGFR1/FGFR3

COc1cc(OC)c(F)c(N2Cc3cnc(-c4cn(C5CCN(CC#N)C5)nc4C)cc3C3(CC3)C2=O)c1F (centres unmarked) : >5

Ask: Entry `COc1cc(OC)c(F)c(N2Cc3cnc(-c4cn(C)nc4C)cc3N(c3ccnnc3)C2=O)c1F` has what FGFR1/FGFR3?
Result: >10

Ask: Entry `COc1cc(OC)c(F)c(N2Cc3cnc(-c4cncc(CN5CCOCC5)c4)cc3C3(CC3)C2=O)c1F` has what FGFR1/FGFR3?
Result: >1

Ask: Entry `COc1cc(OC)c(F)c(N2Cc3cnc(-c4cn(C)nc4C)cc3N(Cc3ccc(C#N)nc3)C2=O)c1F` has what FGFR1/FGFR3?
Result: >5

Ask: Entry `COc1cc(OC)c(F)c(N2Cc3cnc(-c4cn(C)nc4C)cc3N(Cc3cc(C)on3)C2=O)c1F` has what FGFR1/FGFR3?
Result: >5
